- tested.on: Epidermal growth factor receptor [T790M,L858R] (Homo sapiens, UniProt P00533, L858R/T790M)
- Sequence (P00533 25-1210 T790M/L858R limits assumed): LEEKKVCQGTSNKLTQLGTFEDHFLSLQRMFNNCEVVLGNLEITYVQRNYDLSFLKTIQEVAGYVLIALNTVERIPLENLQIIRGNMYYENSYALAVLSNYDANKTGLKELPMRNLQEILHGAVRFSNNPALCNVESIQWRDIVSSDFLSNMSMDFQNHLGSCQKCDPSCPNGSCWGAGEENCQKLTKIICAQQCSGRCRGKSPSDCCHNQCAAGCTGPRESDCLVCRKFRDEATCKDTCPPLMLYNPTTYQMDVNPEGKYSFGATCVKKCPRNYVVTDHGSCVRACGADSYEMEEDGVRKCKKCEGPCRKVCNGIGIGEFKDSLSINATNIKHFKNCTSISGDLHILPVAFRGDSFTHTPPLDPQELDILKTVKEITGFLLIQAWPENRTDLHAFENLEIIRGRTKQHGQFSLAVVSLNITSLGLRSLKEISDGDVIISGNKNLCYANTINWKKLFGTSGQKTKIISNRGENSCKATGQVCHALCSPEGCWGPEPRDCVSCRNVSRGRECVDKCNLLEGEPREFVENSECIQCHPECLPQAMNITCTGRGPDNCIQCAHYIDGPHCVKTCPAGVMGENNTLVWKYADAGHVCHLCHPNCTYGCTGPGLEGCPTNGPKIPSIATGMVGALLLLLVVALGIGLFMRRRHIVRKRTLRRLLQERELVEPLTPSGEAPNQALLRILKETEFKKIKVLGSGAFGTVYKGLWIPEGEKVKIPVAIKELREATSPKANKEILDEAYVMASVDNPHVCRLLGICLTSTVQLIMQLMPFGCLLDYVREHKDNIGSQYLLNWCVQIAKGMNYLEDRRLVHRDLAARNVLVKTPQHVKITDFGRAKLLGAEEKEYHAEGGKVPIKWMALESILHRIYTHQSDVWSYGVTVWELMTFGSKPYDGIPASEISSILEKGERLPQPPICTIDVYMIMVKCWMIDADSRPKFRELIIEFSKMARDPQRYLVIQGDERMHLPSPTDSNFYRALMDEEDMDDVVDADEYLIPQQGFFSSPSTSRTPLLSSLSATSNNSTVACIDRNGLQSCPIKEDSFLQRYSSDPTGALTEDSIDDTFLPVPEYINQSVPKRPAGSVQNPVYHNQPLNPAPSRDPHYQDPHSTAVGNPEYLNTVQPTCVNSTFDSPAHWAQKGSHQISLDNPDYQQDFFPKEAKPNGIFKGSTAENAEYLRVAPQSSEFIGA
- test.protocol: EGFR kinase Enzymatic Activity Test 1
- Description: To assess the effect of compounds on the activity of wild-type and mutant EGFR kinases, kinase activity was tested by measuring ATP consumption in an enzymatic reaction using an ADP-Glo (Promega Corporation) kit. Samples to be tested were dissolved in DMSO and diluted in a gradient. […] IC50 values were calculated according to the above calculation using 4Parameter Logistic Model in XLfit software.
readout.type: pIC50
pIC50 (log units): -log10 of the concentration in mol/L.

Jot down pIC50 (Epidermal growth factor receptor [T790M,L858R] (Homo sapiens, UniProt P00533, L858R/T790M)) of COc1cc(N2CCC(N3CCN(C)CC3)CC2)c(C)cc1Nc1ncc(Br)c(Nc2ccc(C)cc2P(C)(C)=O)n1 [US20230322822, Compound 2] .
7.61

* * *

- tested.on: UniProtKB P00533
readout.type: IC50 (nM)
State the answer as a number, implicitly in nM.

For the molecule COc1cc(N2CCC(N3CCN(C)CC3)CC2)c(C)cc1Nc1ncc(Br)c(Nc2ccc(C)cc2P(C)(C)=O)n1 [US20230322822, Compound 2] , give its measured IC50 value.
169
